Molecular target: Squalene synthase (Rattus norvegicus) (UniProt Q02769)
Sequence (whole entry): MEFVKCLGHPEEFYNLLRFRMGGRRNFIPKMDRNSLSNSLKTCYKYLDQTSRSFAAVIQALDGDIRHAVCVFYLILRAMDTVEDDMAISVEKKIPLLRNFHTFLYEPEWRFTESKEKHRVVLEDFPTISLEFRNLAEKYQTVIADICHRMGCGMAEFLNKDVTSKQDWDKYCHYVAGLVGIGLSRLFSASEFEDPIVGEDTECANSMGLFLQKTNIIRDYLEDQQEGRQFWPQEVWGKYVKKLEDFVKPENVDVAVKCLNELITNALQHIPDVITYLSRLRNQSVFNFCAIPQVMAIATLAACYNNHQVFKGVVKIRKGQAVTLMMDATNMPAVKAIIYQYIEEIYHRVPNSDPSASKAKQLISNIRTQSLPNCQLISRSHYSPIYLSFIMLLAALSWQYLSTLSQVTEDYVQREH
Experiment: Concentration required to inhibit rat liver squalene synthase enzyme relative to control (L-694,599)
Here the recorded Relative activity is given for each entry.

MOLECULE | SYSTEM TESTED | Relative activity
C=C(CCC12OC(C(=O)O)C(O)(C(=O)O)C(C(=O)O)(O1)[C@H](OC(=O)[C@@H](C)CC)[C@H]2O)[C@@H](OC(C)=O)[C@H](C)Cc1ccccc1 (some centres undefined) | Squalene synthase (Rattus norvegicus) (UniProt Q02769) | 0.04
C=C(CCC12OC(C(=O)O)C(O)(C(=O)O)C(C(=O)O)(O1)[C@H](OC(=O)CCCCCCCCCCC)[C@H]2O)[C@@H](OC(C)=O)[C@H](C)Cc1ccccc1 (some centres undefined) | Squalene synthase (Rattus norvegicus) (UniProt Q02769) | 0.29
C=C(CCC12OC(C(=O)O)C(O)(C(=O)O)C(C(=O)O)(O1)[C@H](OC(=O)NCc1ccccc1)[C@H]2O)[C@@H](OC(C)=O)[C@H](C)Cc1ccccc1 (some centres undefined) | Squalene synthase (Rattus norvegicus) (UniProt Q02769) | 0.14
CC(=O)OC(CCCC12OC(C(=O)O)C(O)(C(=O)O)C(C(=O)O)(O1)[C@H](OC(=O)CC/C=C/C(C)CCCc1ccccc1)[C@H]2O)C(C)Cc1ccccc1 (some centres undefined) | Squalene synthase (Rattus norvegicus) (UniProt Q02769) | 1.38
C=C(CCC12OC(C(=O)O)C(O)(C(=O)O)C(C(=O)O)(O1)[C@H](OC(=O)NCC)[C@H]2O)[C@@H](OC(C)=O)[C@H](C)Cc1ccccc1 (some centres undefined) | Squalene synthase (Rattus norvegicus) (UniProt Q02769) | 0.02
C=C(CCC12OC(C(=O)O)C(O)(C(=O)O)C(C(=O)O)(O1)[C@H](OC(=O)CCC)[C@H]2O)[C@@H](OC(=O)CC)[C@H](C)Cc1ccccc1 (some centres undefined) | Squalene synthase (Rattus norvegicus) (UniProt Q02769) | 0.03
C=C(CCC12OC(C(=O)O)C(O)(C(=O)O)C(C(=O)O)(O1)[C@H](OC(=O)C(C)C)[C@H]2O)[C@@H](OC(C)=O)[C@H](C)Cc1ccccc1 (some centres undefined) | Squalene synthase (Rattus norvegicus) (UniProt Q02769) | 0.02
C=C(CCC12OC(C(=O)O)C(O)(C(=O)O)C(C(=O)O)(O1)[C@H](OC(=O)NCCC[C@@H](C)C[C@@H](C)CC)[C@H]2O)[C@@H](OC(C)=O)[C@H](C)Cc1ccccc1 (some centres undefined) | Squalene synthase (Rattus norvegicus) (UniProt Q02769) | 0.25
C=C(CCC12OC(C(=O)O)C(O)(C(=O)O)C(C(=O)O)(O1)[C@H](OC(=O)CC)[C@H]2O)[C@@H](OC(C)=O)[C@H](C)Cc1ccccc1 (some centres undefined) | Squalene synthase (Rattus norvegicus) (UniProt Q02769) | 0.02
C=C(CCC12OC(C(=O)O)C(O)(C(=O)O)C(C(=O)O)(O1)[C@H](OC(=O)CC[C@@H](C)C[C@@H](C)CC)[C@H]2O)[C@@H](OC(C)=O)[C@H](C)Cc1ccccc1 (some centres undefined) | Squalene synthase (Rattus norvegicus) (UniProt Q02769) | 0.74
C=C(CCC12OC(C(=O)O)C(O)(C(=O)O)C(C(=O)O)(O1)[C@H](OC(=O)NC1CC1)[C@H]2O)[C@@H](OC(C)=O)[C@H](C)Cc1ccccc1 (some centres undefined) | Squalene synthase (Rattus norvegicus) (UniProt Q02769) | 0.09
C=C(CCC12OC(C(=O)O)C(O)(C(=O)O)C(C(=O)O)(O1)[C@H](OC(=O)NCCCCCCCCCCCC)[C@H]2O)[C@@H](OC(C)=O)[C@H](C)Cc1ccccc1 (some centres undefined) | Squalene synthase (Rattus norvegicus) (UniProt Q02769) | 1.29
C=C(CCC12OC(C(=O)O)C(OCCCCCCCCCCCC)(C(=O)O)C(C(=O)O)(O1)[C@H](O)[C@H]2O)[C@@H](OC(C)=O)[C@H](C)Cc1ccccc1 (some centres undefined) | Squalene synthase (Rattus norvegicus) (UniProt Q02769) | 0.08
C=C(CCC12OC(C(=O)O)C(O)(C(=O)O)C(C(=O)O)(O1)[C@H](OC(C)=O)[C@H]2O)[C@@H](OC(C)=O)[C@H](C)Cc1ccccc1 (some centres undefined) | Squalene synthase (Rattus norvegicus) (UniProt Q02769) | 0.02
C=C(CCC12OC(C(=O)O)C(O)(C(=O)O)C(C(=O)O)(O1)[C@H](OC(=O)CCCCCCCCCCc1ccccc1)[C@H]2O)[C@@H](OC(C)=O)[C@H](C)Cc1ccccc1 (some centres undefined) | Squalene synthase (Rattus norvegicus) (UniProt Q02769) | 0.45
CCCC(=O)O[C@@H]1[C@@H](O)C2(CCCCc3cccc4ccccc34)OC(C(=O)O)C(O)(C(=O)O)C1(C(=O)O)O2 (some centres undefined) | Squalene synthase (Rattus norvegicus) (UniProt Q02769) | 0.00014
C=C(CCC12OC(C(=O)O)C(O)(C(=O)O)C(C(=O)O)(O1)[C@H](OC(=O)OCCC[C@@H](C)C[C@@H](C)CC)[C@H]2O)[C@@H](OC(C)=O)[C@H](C)Cc1ccccc1 (some centres undefined) | Squalene synthase (Rattus norvegicus) (UniProt Q02769) | 0.77
C=C(CCC12OC(C(=O)O)C(O)(C(=O)O)C(C(=O)O)(O1)[C@H](OC)[C@H]2O)[C@@H](OC(C)=O)[C@H](C)Cc1ccccc1 (some centres undefined) | Squalene synthase (Rattus norvegicus) (UniProt Q02769) | 0.004
C=C(CCC12OC(C(=O)O)C(O)(C(=O)O)C(C(=O)O)(O1)[C@H](OC(=O)CCC)[C@H]2O)[C@@H](OC(=O)CCC)[C@H](C)Cc1ccccc1 (some centres undefined) | Squalene synthase (Rattus norvegicus) (UniProt Q02769) | 0.027
C=C(CCC12OC(C(=O)O)C(O)(C(=O)O)C(C(=O)O)(O1)[C@H](OC(=O)CCCCCCCCCCOc1ccccc1)[C@H]2O)[C@@H](OC(C)=O)[C@H](C)Cc1ccccc1 (some centres undefined) | Squalene synthase (Rattus norvegicus) (UniProt Q02769) | 1.08
C=C(CCC12OC(C(=O)O)C(O)(C(=O)O)C(C(=O)O)(O1)[C@H](OCCC[C@@H](C)C[C@@H](C)CC)[C@H]2O)[C@@H](OC(C)=O)[C@H](C)Cc1ccccc1 (some centres undefined) | Squalene synthase (Rattus norvegicus) (UniProt Q02769) | 1
C=C(CCC12OC(C(=O)O)C(O)(C(=O)O)C(C(=O)O)(O1)[C@H](OC(=O)CC(C)C)[C@H]2O)[C@@H](OC(C)=O)[C@H](C)Cc1ccccc1 (some centres undefined) | Squalene synthase (Rattus norvegicus) (UniProt Q02769) | 0.13
C=C(CCC12OC(C(=O)O)C(O)(C(=O)O)C(C(=O)O)(O1)[C@H](OC(=O)CCCCCCC)[C@H]2O)[C@@H](OC(C)=O)[C@H](C)Cc1ccccc1 (some centres undefined) | Squalene synthase (Rattus norvegicus) (UniProt Q02769) | 0.17
CCCC(=O)O[C@@H]1[C@@H](O)C2(CCCCCCc3ccccc3)OC(C(=O)O)C(O)(C(=O)O)C1(C(=O)O)O2 (some centres undefined) | Squalene synthase (Rattus norvegicus) (UniProt Q02769) | 0.0008
